The origin of these recorded values is patent US20060134087A1.

// reported Fraction of Input recovered at pH7.0 per item
biological target: Human Neutrophil Elastase (human, UniProt P08246); assay: pH elution of display phage from hNE beads, abbreviated protocol
Property label: Fraction of Input recovered at pH7.0

Binder	Result
MUTQE display phage (designed binder) RPDFCQLGYSAGPCVAMFPRYFYNGTSMACETFVYGGCMGNGNNFVTEKDCLQTCRGA	0.00012 fraction of input
MUTP1 display phage (designed binder) RPDFCQLGYSAGPCIGMFSRYFYNGTSMACETFQYGGCMGNGNNFVTEKDCLQTCRGA	0.00018 fraction of input
AMINO2 display phage (designed binder) KPDSCQLGYSAGPCVAMFPRYFYNGTSMACETFQYGGCMGNGNNFVTEKDCLQTCRGA	5.7e-05 fraction of input
MA-BITI-E7-141 display phage (designed binder) RPDFCQLGYSAGPCVAMFPRYFYNGTSMACQTFVYGGCMGNGNNFVTEKDCLQTCRGA	0.00022 fraction of input
